- Tgt: Caspase-1 (Homo sapiens, UniProt P29466)
- Sequence (P29466 whole entry): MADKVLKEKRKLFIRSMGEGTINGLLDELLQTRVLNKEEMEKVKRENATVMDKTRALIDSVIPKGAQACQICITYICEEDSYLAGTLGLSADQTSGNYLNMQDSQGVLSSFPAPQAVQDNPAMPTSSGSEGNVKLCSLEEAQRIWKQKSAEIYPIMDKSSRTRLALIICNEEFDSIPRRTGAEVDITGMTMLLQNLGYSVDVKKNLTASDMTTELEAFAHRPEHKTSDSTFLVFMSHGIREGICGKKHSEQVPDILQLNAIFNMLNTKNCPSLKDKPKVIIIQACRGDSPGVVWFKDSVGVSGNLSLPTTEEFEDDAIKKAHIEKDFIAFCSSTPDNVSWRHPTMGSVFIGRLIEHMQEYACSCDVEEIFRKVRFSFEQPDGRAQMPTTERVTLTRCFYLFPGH
pIC50: −log10 of the molar value.
Measurement kind: pIC50

- O=C1C=CC(=O)C=C1: 5.52
